Recorded measurements of kon, one per entry
Target: T1, human galanin (mature, processed form) (human, UniProt P22466 33-62, 125I-labelled in the filtration and immunoprecipitation assays; biotinylated in the IGEN assay and in the BIAcore assay of Table 4)
T1 construct: mature; the assays used the mature peptide; also called biotinylated galanin
T1 peptide (looked up): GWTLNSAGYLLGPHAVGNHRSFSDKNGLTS
Experiment: BIAcore 3000; IgG captured by goat anti-human IgG Fc on CM5, human galanin peptide flowed; 1:1 Langmuir fit
Method: In terms of ELISA signal, the top 17 Fab fragments consisted of various combinations of three light chains and five heavy chains. For example, the heavy variable region of Fab P1A7 was identical to the heavy variable regions of Fabs R2E9 and R2E8. […] Affinities of these purified antibodies were measured on a BIAcore 3000. […] The binding kinetics was analyzed using the model fit of 1:1 Langmuir+local Rmax+Mass Transfer. […]

{"Binder": "humanized 5B4 IgG1: light chain zu5B4 v04 with heavy chain zu5B4 v11 (antibody, V domains shown, Human IgG1 / human kappa, expressed in E5 cells; VH of humanized 5B4-v11, VL of humanized 5B4-v4) VH: EVQLVQSGAEVKKPGATVKISCKVSGFNIEDYYMHWVQQAPGKGLEWMGRIDPENGNTIYDPKFQGRVTITADTSTNTAYMDLSSLRSEDTAVYYCARGYVDWGQGTLVTVSS VL: DVVMTQSPLSLPVTLGQPASISCRSSQSIVHSDGDTYLEWYLQRPGQSPMLLIYKVSNRFSGVPDRFSGSGSGTDFTLKITRVEAEDVGVYYCFQGSHVPYTFGGGTKVEIKR", "kon [M⁻¹ s⁻¹]": "3.2e+06"}
{"Binder": "humanized 5B4 IgG1: light chain zu5B4 v04 with heavy chain zu5B4 v12 (antibody, V domains shown, Human IgG1 / human kappa, expressed in E5 cells; VH of humanized 5B4-v12, VL of humanized 5B4-v4) VH: EVQLVQSGAEVKKPGATVKISCKVSGFNIEDYYMHWVQQAPGKGLEWMGRIDPENGNTIYDPKFQGRATITADTSTDTAYLDLSSLRSEDTAVYYCARGYVDWGQGTLVTVSS VL: DVVMTQSPLSLPVTLGQPASISCRSSQSIVHSDGDTYLEWYLQRPGQSPMLLIYKVSNRFSGVPDRFSGSGSGTDFTLKITRVEAEDVGVYYCFQGSHVPYTFGGGTKVEIKR", "kon [M⁻¹ s⁻¹]": "3.2e+06"}
{"Binder": "humanized 5B4 IgG1: light chain zu5B4 v05 with heavy chain zu5B4 v04 (antibody, V domains shown, Human IgG1 / human kappa, expressed in E5 cells; VH of humanized 5B4-v4, VL of humanized 5B4-v5) VH: EVQLVQSGAEVKKPGATVKISCKVSGFNIEDYYMHWVQQAPGKGLEWMGRIDPENGNTIYDPKFQGRVTITADTSTNTAYLDLSSLRSEDTAVYYCARGYVDWGQGTLVTVSS VL: DVVMTQSPLSLPVTLGQPASISCRSSQSIVHSDGDTYLEWYQQRPGQSPMSLIYKVSNRFSGVPDRFSGSGSGTDFTLKITRVEAEDVGVYYCFQGSHVPYTFGGGTKVEIKR", "kon [M⁻¹ s⁻¹]": "4.2e+06"}
